// data source = ChEMBL document CHEMBL2321648

Assay: Selectivity index, ratio of CC50 for human HuH5.2 cells to EC50 for Hepatitis C virus subtype 1b
Type: toxicity
Settings: read-out: Ratio CC50/EC50
Experimental endpoint: selectivity ratio

Exercise: Give me measured selectivity ratio, please, for this compound: "CS(=O)(=O)Nc1ccc(NC(=O)c2nn(-c3cccc([N+](=O)[O-])c3)c3c2NS(=O)(=O)c2ccccc2-3)cc1"
Solution: ≥ 1

* * *

Test system: Hepatitis C virus
Assay: Binding affinity to Hepatitis C virus (isolate Con1) NS5B […] by surface plasmon resonance analysis
Set-up: species or system Hepacivirus hominis
Experimental endpoint: Kd (µM)
Unit µM implied. Number only.

Exercise: Give me measured Kd, please, for this compound: "CS(=O)(=O)Nc1ccc(NC(=O)c2nn(-c3cccc([N+](=O)[O-])c3)c3c2NS(=O)(=O)c2ccccc2-3)cc1"
Solution: 14
